- System: K12877-001-R-J1-PDC complex spheroid viability
- assay comment: Anticancer human tumor K12877-001-R-J1-PDC patient-derived lung adenocarcinoma cell line growth inhibition [RAS]
- condition label: curve of first compound; second compound 1 µM
assay metric: IC50

| molecule | IC50 |
| --- | --- |
| Cc1nc(N2CCC3(CC2)COC(C)C3N)c(CO)nc1Sc1ccnc(N)c1Cl (stereo not given) + C#Cc1c(F)ccc2cc(O)cc(-c3ncc4c(N5CC6CCC(C5)N6)nc(OCC56CCCN5CC(F)C6)nc4c3F)c12 | > 10 µM |
| CC(C)NCC(C(=O)N1CCN(c2ncnc3c2C(C)CC3O)CC1)c1ccc(Cl)cc1 (stereo not given) + C#Cc1c(F)ccc2cc(O)cc(-c3ncc4c(N5CC6CCC(C5)N6)nc(OCC56CCCN5CC(F)C6)nc4c3F)c12 | 5.79 µM |
| CCN1CCN(Cc2ccc(Nc3ncc(F)c(-c4cc(F)c5nc(C)n(C(C)C)c5c4)n3)nc2)CC1 + C=CC(=O)N1CCN(c2nc(OCC3CCCN3C)nc3c(F)c(-c4nc(N)cc(C)c4C(F)(F)F)c(Cl)cc23)C(C)C1 | 0.696 µM |
| C[C@@H](NC(=O)c1ncnc(N)c1Cl)c1ncc(C(=O)Nc2cc(C(F)(F)F)c(Cl)cn2)s1 + C=CC(=O)N1CCN(c2nc(OCC3CCCN3C)nc3c(F)c(-c4nc(N)cc(C)c4C(F)(F)F)c(Cl)cc23)C(C)C1 | > 10 µM |

Below: the item to evaluate.
Ask: Sample CCC(CC)c1cc(NC2CCC(N)C2)n2nccc2n1 (stereo not given) + C#Cc1c(F)ccc2cc(O)cc(-c3ncc4c(N5CC6CCC(C5)N6)nc(OCC56CCCN5CC(F)C6)nc4c3F)c12 — what was its IC50?
Result: 1.81 µM

* * *

- Test system: K12877-001-R-J1-PDC complex spheroid viability
- assay comment: Anticancer human tumor K12877-001-R-J1-PDC cell line growth inhibition [RAS];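 note: spheroids exposed to agents for one week before readout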;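 for viability, T/C: tumour cells co-cultured with HUVEC and mesenchymal stem cells in spheroids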
- condition label: second compound 0.00949 µM; first compound 1 µM; stronger effect = lower value
Assign labels as follows, please: label 1 for viability, T/C below 40%; label 0 for viability, T/C equal to or exceeding 40%.

Ask: Find out if reported viability, T/C for CCN1CCN(Cc2ccc(Nc3ncc(F)c(-c4cc(F)c5nc(C)n(C(C)C)c5c4)n3)nc2)CC1 + CCn1c(-c2cc(N3CCN(C)CC3)cnc2C(C)OC)c2c3cc(ccc31)-c1csc(n1)CC(NC(=O)C1CC1C)C(=O)N1CCCC(N1)C(=O)OCC(C)(C)C2 is less than 40%
Result: label 1

Ask: Ok, now CC(=O)OC12COC1CC(O)C1(C)C(=O)C(O)C3=C(C)C(OC(=O)C(O)C(NC(=O)OC(C)(C)C)c4ccccc4)CC(O)(C(OC(=O)c4ccccc4)C21)C3(C)C (configuration not stated) + CCn1c(-c2cccnc2C(C)OC)c2c3cc(ccc31)N1CCOC(CC(NC(=O)C(C(C)C)N(C)C(=O)C3(F)CCN(C(=O)C#CC(C)(C)N(C)C)CC3)C(=O)N3CCCC(N3)C(=O)OCC(C)(C)C2)C1
Result: label 1

Ask: Similarly, CC(Nc1ccc2c(c1)OCCn1cc(N3C(=O)OCC3C(F)F)nc1-2)C(N)=O (configuration not stated) + CCn1c(-c2cccnc2C(C)OC)c2c3cc(ccc31)N1CCOC(CC(NC(=O)C(C(C)C)N(C)C(=O)C3(F)CCN(C(=O)C#CC(C)(C)N(C)C)CC3)C(=O)N3CCCC(N3)C(=O)OCC(C)(C)C2)C1 ?
Result: label 0

Ask: Ok, now C=CC(=O)N1CCN(c2nc(OCC3CCCN3C)nc3c(F)c(-c4nc(N)cc(C)c4C(F)(F)F)c(Cl)cc23)C(C)C1 (configuration not stated) + CCn1c(-c2cc(N3CCN(C)CC3)cnc2C(C)OC)c2c3cc(ccc31)-c1csc(n1)CC(NC(=O)C1CC1C)C(=O)N1CCCC(N1)C(=O)OCC(C)(C)C2
Result: label 0

Ask: Also Nc1ccn(C2OC(CO)C(O)C2(F)F)c(=O)n1 (configuration not stated) + CCn1c(-c2cccnc2C(C)OC)c2c3cc(ccc31)N1CCOC(CC(NC(=O)C(C(C)C)N(C)C(=O)C3(F)CCN(C(=O)C#CC(C)(C)N(C)C)CC3)C(=O)N3CCCC(N3)C(=O)OCC(C)(C)C2)C1 ?
Result: label 1

Ask: Ok, now CC1(O)CCCC1n1c(=O)c(C(F)F)cc2cnc(NC3CCN(S(C)(=O)=O)CC3)nc21 (configuration not stated) + CCn1c(-c2cc(N3CCN(C)CC3)cnc2C(C)OC)c2c3cc(ccc31)-c1csc(n1)CC(NC(=O)C1CC1C)C(=O)N1CCCC(N1)C(=O)OCC(C)(C)C2
Result: label 0

Ask: What about this molecule? CC(C)NCC(C(=O)N1CCN(c2ncnc3c2C(C)CC3O)CC1)c1ccc(Cl)cc1 (configuration not stated) + CCn1c(-c2cccnc2C(C)OC)c2c3cc(ccc31)N1CCOC(CC(NC(=O)C(C(C)C)N(C)C(=O)C3(F)CCN(C(=O)C#CC(C)(C)N(C)C)CC3)C(=O)N3CCCC(N3)C(=O)OCC(C)(C)C2)C1
Result: label 0
